These measurements were taken from ChEMBL document CHEMBL3286195.

tgt: BDNF/NT-3 growth factors receptor (Homo sapiens, UniProt Q16620)
Sequence (Q16620 whole entry): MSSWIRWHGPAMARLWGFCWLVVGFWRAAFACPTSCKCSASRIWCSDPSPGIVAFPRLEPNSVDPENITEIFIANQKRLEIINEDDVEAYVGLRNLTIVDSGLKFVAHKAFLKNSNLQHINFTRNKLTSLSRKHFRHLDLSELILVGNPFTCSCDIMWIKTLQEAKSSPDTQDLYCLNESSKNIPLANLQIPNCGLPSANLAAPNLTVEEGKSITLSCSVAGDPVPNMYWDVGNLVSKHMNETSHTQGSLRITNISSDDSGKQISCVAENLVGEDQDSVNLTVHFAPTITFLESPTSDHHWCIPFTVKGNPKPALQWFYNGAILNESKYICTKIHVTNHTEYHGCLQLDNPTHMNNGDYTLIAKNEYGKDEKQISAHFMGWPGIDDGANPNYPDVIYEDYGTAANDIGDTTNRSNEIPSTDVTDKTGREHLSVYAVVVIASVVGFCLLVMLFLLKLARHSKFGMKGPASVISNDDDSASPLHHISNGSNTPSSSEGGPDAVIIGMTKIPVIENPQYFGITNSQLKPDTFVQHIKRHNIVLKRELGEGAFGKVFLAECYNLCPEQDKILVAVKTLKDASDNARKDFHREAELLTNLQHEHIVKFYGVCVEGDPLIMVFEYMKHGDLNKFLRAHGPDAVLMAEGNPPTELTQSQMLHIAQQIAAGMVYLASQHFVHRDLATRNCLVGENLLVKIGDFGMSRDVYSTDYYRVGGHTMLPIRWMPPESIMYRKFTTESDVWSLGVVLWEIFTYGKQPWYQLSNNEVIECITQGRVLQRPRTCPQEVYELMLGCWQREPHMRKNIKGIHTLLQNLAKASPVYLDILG
result-type: pKi
// returns pKi (minus log10 of molar concentration), number only

Look up pKi for this molecule: Cc1cnc2nc3c(n2c1)-c1cnc(N)c(c1)O[C@H](C)c1cc(F)ccc1C(=O)N(C)C3
7.11

Look up pKi for this molecule: Cc1nn(C)c2c1-c1cnc(N)c(c1)O[C@H](C)c1cc(F)ccc1C(=O)N(C)C2
9.30

Look up pKi for this molecule: C[C@H]1Oc2nc(cnc2N)-c2c(nc3ccc(C#N)cn23)CN(C)C(=O)c2ccc(F)cc21
7.19

----------
method: Fraction unbound in rat plasma at 2.4 uM
Assay type: ADME, cell-free
result-type: fraction unbound at 2.4 µM
Lab note: jot down the number only; don't add units.

Look up fraction unbound at 2.4 µM for this compound: C[C@H]1Oc2cc(cnc2N)-c2c(nn(C)c2C#N)CN(C)C(=O)c2ccc(F)cc21
0.36

----------
method: AUC in rat plasma at 10 mg/kg, po
Assay type: ADME, organism-based
Set-up: dose 10 mg/kg, route oral
result-type: AUC (µM·h)
Express the result in µM·h but write the number alone.

Look up AUC for this molecule: C[C@H]1Oc2cc(cnc2N)-c2c(nn(C)c2C#N)CN(C)C(=O)c2ccc(F)cc21 [LORLATINIB]
30.7

----------
method: physchem
settings: octanol/water, pH 7.4
Consider the following compounds; for each one, report its logD.
Lab note: jot down the number only; don't add units.

Look up logD for this compound: Cc1nn(C)c2c1-c1cnc(N)c(n1)O[C@@H](C)c1cc(F)ccc1C(=O)N(C)C2
2.5

Look up logD for this compound: C[C@H]1Oc2nc(cnc2N)-c2cc(S(C)(=O)=O)ccc2CN(C)C(=O)c2ccc(F)cc21
2.2

Look up logD for this compound: N#Cc1[nH]nc2c1-c1cnc(N)c(c1)OCc1cc(F)ccc1OCC2
3

Look up logD for this compound: Cc1nn(C)c2c1-c1cnc(N)c(n1)O[C@H](C)c1cc(F)ccc1C(=O)N(C)C2
2.5

Look up logD for this compound: C[C@H]1Oc2cc(cnc2N)-c2cc(S(C)(=O)=O)ccc2CN(C)C(=O)c2ccc(F)cc21
1.8

----------
method: Half life in rat at 1 mg/kg, iv qd
Format: ADME, organism-based
Set-up: dose 1 mg/kg, route intravenous
settings: in vivo
result-type: half-life

Look up half-life for this molecule: C[C@H]1Oc2cc(cnc2N)-c2c(nn(C)c2C#N)CN(C)C(=O)c2ccc(F)cc21
162 min

----------
method: physchem
settings: octanol/water, pH 7.4
result-type: logD
Lab note: jot down the number only; don't add units.

Look up logD for this compound: COc1ncccc1-c1cnc(N)c(O[C@H](C)c2cc(F)ccc2-n2nccn2)n1
4

Look up logD for this compound: Cn1ncc2c1-c1cnc(N)c(c1)OCc1cc(F)ccc1OCCCC2
3.1

Look up logD for this compound: Cc1nn(C)cc1-c1cnc(N)c(O[C@H](C)c2cc(F)ccc2C(=O)N(C)C)c1
2.1

Look up logD for this compound: N#Cc1[nH]nc2c1-c1cnc(N)c(c1)OCc1cc(F)ccc1OCCC2
3.6

Look up logD for this compound: COc1ccc(F)cc1[C@@H](C)Oc1cc(-c2cnnn2C)cnc1N
2.4

Look up logD for this compound: COc1nn(C)c2c1-c1cnc(N)c(n1)O[C@H](C)c1cc(F)ccc1C(=O)N(C)C2
2.7

Look up logD for this compound: Cc1nn(C)c2c1-c1cnc(N)c(c1)OCc1cc(F)ccc1C(=O)N(C)C2
2

Look up logD for this compound: C[C@H]1Oc2cc(cnc2N)-c2c(C3CC3)nn(C)c2CN(C)C(=O)c2ccc(F)cc21
2.9

Look up logD for this compound: C[C@@H](Oc1cc(-c2cccc(S(C)(=O)=O)c2)cnc1N)c1cc(F)ccc1-n1nccn1
3.4

Look up logD for this compound: CNC(=O)c1ccc(F)cc1[C@@H](C)Oc1cc(-c2cn(C)nc2C)cnc1N
2.1
